Assay: Solubility in selected oil-based media
Format: physicochemical
Settings: Inwitor 742 (oil-based medium), oil or lipid; in Inwitor 742; read-out: Solubility, Concentration
Property: solubility
Note: state the figure and append the unit.

Ask: Item O=S(=O)(Nc1cc(Cl)c(Oc2cnc3ccccc3c2)c(Cl)c1)c1ccc(Cl)cc1Cl.O=S(=O)(O)c1ccccc1 [besylate salt of compound 101] has what recorded solubility?
Result: 7930 µg/mL

====

Assay: Solubility in selected oil-based media
Format: physicochemical
Settings: Capmul® MCM (oil-based medium), oil or lipid; in Capmul ® MCM; read-out: Solubility, Concentration
Property: solubility (mg/mL)
# number only, unit mg/mL dropped from output

Ask: Item O=S(=O)(Nc1cc(Cl)c(Oc2cnc3ccccc3c2)c(Cl)c1)c1ccc(Cl)cc1Cl.O=S(=O)(O)c1ccccc1 [besylate salt of compound 101] has what recorded solubility?
Result: 16.6

====

Experiment: Solubility in selected oil-based media
Type: physicochemical
Details: Labrasol® (oil-based medium), oil or lipid; in Labrasol ®; read-out: Solubility, Concentration
Property: solubility (mg/mL)
# number only, unit mg/mL dropped from output

Ask: Item O=S(=O)(Nc1cc(Cl)c(Oc2cnc3ccccc3c2)c(Cl)c1)c1ccc(Cl)cc1Cl.O=S(=O)(O)c1ccccc1 [besylate salt of compound 101] has what recorded solubility?
Result: 29.2

====

Assay: Solubility in selected oil-based media
Format: physicochemical
Settings: Capmul® PG8 (oil-based medium), oil or lipid; in Capmul ® PG8; read-out: Solubility, Concentration
Property: solubility (µg/mL)
# number only, unit µg/mL dropped from output

Ask: Item O=S(=O)(Nc1cc(Cl)c(Oc2cnc3ccccc3c2)c(Cl)c1)c1ccc(Cl)cc1Cl.O=S(=O)(O)c1ccccc1 [besylate salt of compound 101] has what recorded solubility?
Result: 2010

====

Assay: Solubility in selected oil-based media
Type: physicochemical
Conditions: Miglyol® 810N (oil-based medium), oil or lipid; in Miglyol ® 810N; read-out: Solubility, Concentration
Property: solubility (µg/mL)
# number only, unit µg/mL dropped from output

Ask: Item O=S(=O)(Nc1cc(Cl)c(Oc2cnc3ccccc3c2)c(Cl)c1)c1ccc(Cl)cc1Cl.O=S(=O)(O)c1ccccc1 [besylate salt of compound 101] has what recorded solubility?
Result: 380

====

Test: Solubility in selected oil-based media
Format: physicochemical
Details: Captex® 300EP (oil-based medium), oil or lipid; in Captex ® 300EP; read-out: Solubility, Concentration
Property: solubility (µg/mL)
# number only, unit µg/mL dropped from output

Ask: Item O=S(=O)(Nc1cc(Cl)c(Oc2cnc3ccccc3c2)c(Cl)c1)c1ccc(Cl)cc1Cl.O=S(=O)(O)c1ccccc1 [besylate salt of compound 101] has what recorded solubility?
Result: 280

====

Assay: Solubility in selected oil-based media
Format: physicochemical
Details: Miglyol® 812N (oil-based medium), oil or lipid; in Miglyol ® 812N; read-out: Solubility, Concentration
Property: solubility (µg/mL)
# number only, unit µg/mL dropped from output

Ask: Item O=S(=O)(Nc1cc(Cl)c(Oc2cnc3ccccc3c2)c(Cl)c1)c1ccc(Cl)cc1Cl.O=S(=O)(O)c1ccccc1 [besylate salt of compound 101] has what recorded solubility?
Result: 7930

====

Experiment: Solubility in selected oil-based media
Format: physicochemical
Settings: Phosal® 53 MCT (oil-based medium), oil or lipid; in Phosal ® 53 MCT; read-out: Solubility, Concentration
Property: solubility (mg/mL)
# number only, unit mg/mL dropped from output

Ask: Item O=S(=O)(Nc1cc(Cl)c(Oc2cnc3ccccc3c2)c(Cl)c1)c1ccc(Cl)cc1Cl.O=S(=O)(O)c1ccccc1 [besylate salt of compound 101] has what recorded solubility?
Result: 43.4
